- Test system: MDA-MB-231
- protocol summary: Growth inhibition of human MDA-MB-231 cells measured after 5 days by CellTiter-Glo assay
- Type: functional
- assay conditions: time 5 day
GI90 listing for selected compounds.

# molecular string, GI90
records = [
    ("COc1cc(N2CCCC2=O)ccc1Nc1nc(NC2CCCC2)c2c(C#N)c[nH]c2n1", "383 nM"),
    ("COc1cc(N2CCCC2=O)ccc1Nc1nc(NC2CCOCC2)c2c(C#N)c[nH]c2n1", ">1000 nM"),
    ("Cc1cc(N2CCOCC2)ccc1Nc1nc(NC2CCCCC2)c2c(Cl)c[nH]c2n1", ">1000 nM"),
    ("COc1cc(N2CCCC2=O)ccc1Nc1nc(NCC2CCC2)c2c(C#N)c[nH]c2n1", ">1000 nM"),
]

---

- System: MDA-MB-231
- protocol summary: Growth inhibition of human MDA-MB-231 cells measured after 5 days by CellTiter-Glo assay
- Type: functional
- assay conditions: time 5 day
Param label: returns condition met when GI90 < 300 nM, returns condition not met otherwise, including exact equality.

# molecular string, classification
data = [
    ("Cc1cc(N2CCOCC2)ccc1Nc1nc(NC2CCCCC2)c2c(C#N)c[nH]c2n1", "condition not met"),
    ("COc1cc(N2CCCC2=O)ccc1Nc1nc(NC(C)C)c2c(C#N)c[nH]c2n1", "condition not met"),
    ("N#Cc1c[nH]c2nc(Nc3ccc(N4CCCC4=O)cn3)nc(NC3CCCCC3)c12", "condition not met"),
    ("N#Cc1c[nH]c2nc(Nc3ccc(N4CCCC4=O)cc3)nc(NC3CCCCC3)c12", "condition met"),
    ("COc1cc(N2CCCC2=O)ccc1Nc1nc(NC2CCCCC2)c2c(C#N)c[nH]c2n1", "condition met"),
    ("Cc1cc(N2CCOCC2)ccc1Nc1nc(NC2CCCCC2)c2c(C(F)(F)F)c[nH]c2n1", "condition not met"),
    ("COc1cc(N2CCCC2=O)ccc1Nc1nc(NCC(C)(C)C)c2c(C#N)c[nH]c2n1", "condition not met"),
    ("CCCCNc1nc(Nc2ccc(N3CCCC3=O)cc2OC)nc2[nH]cc(C#N)c12", "condition met"),
    ("COc1cc(N2CCCC2=O)ccc1Nc1nc(NC2CCC2)c2c(C#N)c[nH]c2n1", "condition not met"),
    ("COc1cc(N2CCCC2=O)ccc1Nc1nc(NC2CCCCC2)c2c(C(F)(F)F)c[nH]c2n1", "condition not met"),
    ("COc1cc(N2CCCC2=O)ccc1Nc1nc(NCC(C)C)c2c(C#N)c[nH]c2n1", "condition met"),
    ("CNc1nc(Nc2ccc(N3CCCC3=O)cc2OC)nc2[nH]cc(C#N)c12", "condition not met"),
    ("Cn1cc(Nc2nc(NC3CCCCC3)c3c(C#N)c[nH]c3n2)cn1", "condition not met"),
    ("COc1cc(N2CCCC2=O)ccc1Nc1nc(NC2CCCCC2)c2cc[nH]c2n1", "condition not met"),
    ("COCC(C)(C)Nc1nc(Nc2ccc(N3CCCC3=O)cc2OC)nc2[nH]cc(C#N)c12", "condition not met"),
    ("COc1cc(N2CCCC2=O)ccc1Nc1nc(NCC2CCCC2)c2c(C#N)c[nH]c2n1", "condition not met"),
    ("CC[C@H](C)Nc1nc(Nc2ccc(N3CCCC3=O)cc2OC)nc2[nH]cc(C#N)c12", "condition not met"),
    ("CCOc1cc(N2CCCC2=O)ccc1Nc1nc(NC2CCCCC2)c2c(C#N)c[nH]c2n1", "condition not met"),
    ("COc1cc(N2CCOCC2=O)ccc1Nc1nc(NC2CCCCC2)c2c(C#N)c[nH]c2n1", "condition not met"),
    ("COc1cc(C(=O)N2CCOCC2)ccc1Nc1nc(NC2CCCCC2)c2c(C#N)c[nH]c2n1", "condition met"),
]

---

ΔTm listing for selected compounds.
- subject of test: Dual specificity protein kinase TTK (Homo sapiens) (UniProt P33981)
- Sequence (whole entry): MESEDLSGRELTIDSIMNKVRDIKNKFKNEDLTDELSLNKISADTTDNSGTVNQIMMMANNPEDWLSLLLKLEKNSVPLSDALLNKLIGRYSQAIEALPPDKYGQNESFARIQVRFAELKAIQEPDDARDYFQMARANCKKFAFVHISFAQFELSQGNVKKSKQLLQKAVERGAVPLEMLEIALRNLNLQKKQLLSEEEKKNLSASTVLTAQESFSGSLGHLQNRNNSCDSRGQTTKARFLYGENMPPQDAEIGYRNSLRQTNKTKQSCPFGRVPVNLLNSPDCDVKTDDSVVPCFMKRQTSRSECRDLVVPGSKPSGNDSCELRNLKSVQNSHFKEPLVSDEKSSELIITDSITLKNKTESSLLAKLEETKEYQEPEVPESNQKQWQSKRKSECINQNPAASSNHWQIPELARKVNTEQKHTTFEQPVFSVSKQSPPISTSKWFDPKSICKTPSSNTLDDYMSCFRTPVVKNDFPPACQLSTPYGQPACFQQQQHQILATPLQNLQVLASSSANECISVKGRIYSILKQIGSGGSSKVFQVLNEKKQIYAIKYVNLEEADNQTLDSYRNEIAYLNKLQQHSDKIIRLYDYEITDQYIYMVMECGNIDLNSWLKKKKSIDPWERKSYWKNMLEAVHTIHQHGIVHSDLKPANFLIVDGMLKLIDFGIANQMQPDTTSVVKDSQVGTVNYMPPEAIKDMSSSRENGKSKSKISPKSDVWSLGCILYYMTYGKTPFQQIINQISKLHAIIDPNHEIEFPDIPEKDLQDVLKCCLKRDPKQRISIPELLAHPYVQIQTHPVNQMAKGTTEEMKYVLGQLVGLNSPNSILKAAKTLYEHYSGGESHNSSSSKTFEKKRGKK
- protocol summary: Binding affinity to human hexa-His tagged MPS1 (515 to 795 residue) expressed in Escherichia coli BL2I-DE3 cells assessed as change in melting temperature by thermal shift assay

# molecular string, endpoint unit, ΔTm
rows = [
    ("COc1cc(N2CCCC2=O)ccc1Nc1nc(NCC(C)(C)C)c2c(C#N)c[nH]c2n1", "°C", 14.4),
    ("Cc1cc(N2CCOCC2)ccc1Nc1nc(NC2CCCCC2)c2c(C(F)(F)F)c[nH]c2n1", "°C", 17.2),
    ("COc1cc(N2CCCC2=O)ccc1Nc1nc(NC2CCCC2)c2c(C#N)c[nH]c2n1", "°C", 17.1),
    ("COc1cc(N2CCCC2=O)ccc1Nc1nc(NC2CCC2)c2c(C#N)c[nH]c2n1", "°C", 14.3),
    ("COc1cc(N2CCCC2=O)ccc1Nc1nc(NC(C)C)c2c(C#N)c[nH]c2n1", "°C", 14.2),
    ("COc1cc(N2CCCC2=O)ccc1Nc1nc(NCC(C)C)c2c(C#N)c[nH]c2n1", "°C", 13.8),
    ("CC[C@H](C)Nc1nc(Nc2ccc(N3CCCC3=O)cc2OC)nc2[nH]cc(C#N)c12", "°C", 15.1),
    ("COc1cc(N2CCOCC2=O)ccc1Nc1nc(NC2CCCCC2)c2c(C#N)c[nH]c2n1", "°C", 17.2),
    ("COc1cc(C(=O)N2CCOCC2)ccc1Nc1nc(NC2CCCCC2)c2c(C#N)c[nH]c2n1", "°C", 16.1),
    ("N#Cc1c[nH]c2nc(Nc3ccc(N4CCCC4=O)cn3)nc(NC3CCCCC3)c12", "°C", 13.8),
    ("COc1cc(N2CCCC2=O)ccc1Nc1nc(NCC2CCC2)c2c(C#N)c[nH]c2n1", "°C", 15.2),
    ("COCC(C)(C)Nc1nc(Nc2ccc(N3CCCC3=O)cc2OC)nc2[nH]cc(C#N)c12", "°C", 15.1),
    ("COc1cc(N2CCCC2=O)ccc1Nc1nc(NC2CCCCC2)c2cc[nH]c2n1", "°C", 15.3),
    ("COc1cc(N2CCCC2=O)ccc1Nc1nc(NC2CCCCC2)c2c(C(F)(F)F)c[nH]c2n1", "°C", 15.1),
    ("CCOc1cc(N2CCCC2=O)ccc1Nc1nc(NC2CCCCC2)c2c(C#N)c[nH]c2n1", "°C", 16.9),
    ("CCCCNc1nc(Nc2ccc(N3CCCC3=O)cc2OC)nc2[nH]cc(C#N)c12", "°C", 11.2),
    ("Cc1cc(N2CCOCC2)ccc1Nc1nc(NC2CCCCC2)c2c(Cl)c[nH]c2n1", "°C", 18.1),
    ("COc1cc(N2CCCC2=O)ccc1Nc1nc(NC2CCCCC2)c2c(C#N)c[nH]c2n1", "°C", 18.3),
    ("Cc1cc(N2CCOCC2)ccc1Nc1nc(NC2CCCCC2)c2c(C#N)c[nH]c2n1", "°C", 19.9),
    ("Cn1cc(Nc2nc(NC3CCCCC3)c3c(C#N)c[nH]c3n2)cn1", "°C", 15.2),
]
